B1: NCOA2 peptide 1075-1090 (Nuclear receptor coactivator 2), 16-mer library wild type / NSP3 UBl1 (ORF1ab Nsp3a Ub1, residues 819-925) (parent)
chain 1: DEGALLDQLYLALRNF
chain 2: APTKVTFGDDTVIEVQGYKSVNITFELDERIDKVLNEKCSAYTVELGTEVNEFACVVADAVIKTLQPVSELLTPLGIDLDEWSMATYYLFDESGEFKLASHMYCSFY

# Variants of: B1
# Recorded Conditions: with NSP3 UBl1 (ORF1ab Nsp3a Ub1, residues 819-925); bait immobilised on MaxiSorp plates (10 µg), library pre-cleared on GST, 2 h binding at 4 °C, five washes; one round per day, days 1-4; value from days 2 and 3; keep out of graded; scale: average fractional NGS count over selection days 2 and 3
Value Kind: screen value
Response field accepts a number only; no unit should be typed.

Input line: Which screen value reading was recorded for the variant chain 1 DEGALDDQLYLALRNF [chain 1 L6D] ?
Output line: 0

Input line: Which screen value reading was recorded for the variant chain 1 DEGALLDQLYLALRHF [chain 1 N15H] ?
Output line: 5.47e-06

Input line: Which screen value reading was recorded for the variant chain 1 DEGALLDQVYLALRNF [chain 1 L9V] ?
Output line: 1.9e-05

Input line: Which screen value reading was recorded for the variant chain 1 DEGALLDQLYLALDNF [chain 1 R14D] ?
Output line: 0.000475

Input line: Which screen value reading was recorded for the variant chain 1 DEGALLDQLYLALFNF [chain 1 R14F] ?
Output line: 2.17e-05

Input line: Which screen value reading was recorded for the variant chain 1 DEGALLDQHYLALRNF [chain 1 L9H] ?
Output line: 0

Input line: Which screen value reading was recorded for the variant chain 1 DEGALLDQLYLALRIF [chain 1 N15I] ?
Output line: 2.73e-05

Input line: Which screen value reading was recorded for the variant chain 1 DEGALLDQKYLALRNF [chain 1 L9K] ?
Output line: 0

Input line: Which screen value reading was recorded for the variant chain 1 DEGALLDGLYLALRNF [chain 1 Q8G] ?
Output line: 8.24e-06

Input line: Which screen value reading was recorded for the variant chain 1 DEGALLDQLYQALRNF [chain 1 L11Q] ?
Output line: 0

Input line: Which screen value reading was recorded for the variant chain 1 DEGALLDQLYLALYNF [chain 1 R14Y] ?
Output line: 5.46e-06

Input line: Which screen value reading was recorded for the variant chain 1 DEGALLDQLYMALRNF [chain 1 L11M] ?
Output line: 0

Input line: Which screen value reading was recorded for the variant chain 1 DEGALLDQLYLALKNF [chain 1 R14K] ?
Output line: 0

Input line: Which screen value reading was recorded for the variant chain 1 DEGALLDQLYLALNNF [chain 1 R14N] ?
Output line: 2.08e-05

Input line: Which screen value reading was recorded for the variant chain 1 DEGALLDQLYSALRNF [chain 1 L11S] ?
Output line: 0.000175

Input line: Which screen value reading was recorded for the variant chain 1 DENALLDQLYLALRNF [chain 1 G3N] ?
Output line: 7.33e-06

Input line: Which screen value reading was recorded for the variant chain 1 DEGALLDQLYLWLRNF [chain 1 A12W] ?
Output line: 0

Input line: Which screen value reading was recorded for the variant chain 1 DEGALEDQLYLALRNF [chain 1 L6E] ?
Output line: 0

Input line: Which screen value reading was recorded for the variant chain 1 DEGALLDQLYLALRLF [chain 1 N15L] ?
Output line: 0.000158

Input line: Which screen value reading was recorded for the variant chain 1 DNGALLDQLYLALRNF [chain 1 E2N] ?
Output line: 0

Input line: Which screen value reading was recorded for the variant chain 1 DEGALLDPLYLALRNF [chain 1 Q8P] ?
Output line: 1.57e-05

Input line: Which screen value reading was recorded for the variant chain 1 DEGLLLDQLYLALRNF [chain 1 A4L] ?
Output line: 7.15e-06

Input line: Which screen value reading was recorded for the variant chain 1 DEGALLDQLYLALRVF [chain 1 N15V] ?
Output line: 0.00016

Input line: Which screen value reading was recorded for the variant chain 1 DEGALLDQLYLALRAF [chain 1 N15A] ?
Output line: 1.68e-05

Input line: Which screen value reading was recorded for the variant chain 1 DEGYLLDQLYLALRNF [chain 1 A4Y] ?
Output line: 0.00107

Input line: Which screen value reading was recorded for the variant chain 1 DERALLDQLYLALRNF [chain 1 G3R] ?
Output line: 2.99e-05

Input line: Which screen value reading was recorded for the variant chain 1 DEGALLDQLYLALRFF [chain 1 N15F] ?
Output line: 0.113

Input line: Which screen value reading was recorded for the variant chain 1 DEGALLDQLYFALRNF [chain 1 L11F] ?
Output line: 0

Input line: Which screen value reading was recorded for the variant chain 1 DEGALGDQLYLALRNF [chain 1 L6G] ?
Output line: 0

Input line: Which screen value reading was recorded for the variant chain 1 DEGALLDQTYLALRNF [chain 1 L9T] ?
Output line: 0

Input line: Which screen value reading was recorded for the variant chain 1 DEGALLDQIYLALRNF [chain 1 L9I] ?
Output line: 7.34e-06
